# Experimental Protocol: Stability of the compound in phosphate buffered saline assessed as parent compound remaining at 100 uM at pH 7.4 after 20 mins by UV-vis spectrophotometric analysis
# Type: physicochemical
# Test Context: read-out: Stability
Readout Name: remaining at 20 min, 100 µM (%)
Answer format: numeric, % implied, no suffix.

compound O=C(N/N=C/c1ccccc1B(O)O)c1ccncc1 , remaining at 20 min, 100 µM observed: 68

====

# Experimental Protocol: Stability of the compound in Britton-Robinson buffer at pH 12 assessed as parent compound remaining at 100 uM by UV-vis spectrometric analysis
# Assay type: physicochemical
# Test Context: read-out: Stability
Readout Name: remaining at 100 µM (%)
The reply should contain only the number, in %.

# compound CC1(C)OB(c2ccccc2/C=N/NC(=O)c2ccncc2)OC1(C)C ; its remaining at 100 µM = 50

====

# Experimental Protocol: Stability of the compound in Britton-Robinson buffer at pH 6 assessed as parent compound remaining at 100 uM by UV-vis spectrometric analysis
# Assay type: physicochemical
# Test Context: read-out: Stability
Readout Name: remaining at 100 µM (%)
Number in %, nothing else.

Please fill in: remaining at 100 µM reported for CC1(C)OB(c2ccccc2/C=N/NC(=O)c2ccncc2)OC1(C)C = 36

====

# Experimental Protocol: Stability of the compound in phosphate buffered saline assessed as parent compound remaining at 500 uM at pH 7.4 after 20 mins by UV-vis spectrophotometric analysis
# Format: physicochemical
# Test Context: read-out: Stability
Readout Name: remaining at 20 min, 500 µM (%)
# number only, unit % dropped from output

Looking up O=C(N/N=C/c1ccccc1B(O)O)c1ccncc1 , I found its remaining at 20 min, 500 µM recorded as 84

====

# Experimental Protocol: Half-life in RPMI media at 100 uM
# Type: physicochemical
Readout Name: half-life at 100 µM (h)
API: value field is a number in h; no unit string.

half-life at 100 µM recorded for this compound, O=C(N/N=C/c1ccccc1O)c1ccncc1 , is 2.7

====

# Experimental Protocol: Stability of the compound in Britton-Robinson buffer at pH 2 assessed as parent compound remaining at 100 uM by UV-vis spectrometric analysis
# Assay type: physicochemical
# Test Context: read-out: Stability
Readout Name: remaining at 100 µM (%)
Enter your answer as a number in %; do not include the unit.

So for CC1(C)OB(c2ccccc2/C=N/NC(=O)c2ccncc2)OC1(C)C , the logged remaining at 100 µM turned out to be 9

====

# Experimental Protocol: Stability of the compound in Britton-Robinson buffer at pH 8 assessed as parent compound remaining at 100 uM by UV-vis spectrometric analysis
# Format: physicochemical
# Test Context: read-out: Stability
Readout Name: remaining at 100 µM

The reported remaining at 100 µM of the molecule CC1(C)OB(c2ccccc2/C=N/NC(=O)c2ccncc2)OC1(C)C was 65%
